# reported Plant response rating, Pigweed; entries follow
# Tested on: pigweed (Amaranthus retroflexus)
# ASSAY: Test A pre-/postemergence plant response
# Assay type: in vivo
# MEASUREMENT_CONTEXT: Preemergence, 31 g ai/ha; 0 to 100 scale, 0 is no effect, 100 is complete control
Respond with the number and no other words.

| RECORD_SMILES | Plant response rating, Pigweed |
| --- | --- |
| CC(C)Cc1cc(-c2ccc(Cl)cc2)nn1-c1c(O)cnn(C)c1=O | 0 |
| Cc1ccc(-c2ccc(Cl)cc2)cc1-c1c(O)cnn(C)c1=O | 0 |
| Cc1cc(-c2ccc(Cl)cc2)nn1-c1c(OC(=O)c2ccccc2Cl)cnn(C)c1=O | 0 |
| Cc1cc(-c2ccc(Cl)cc2)nn1-c1c(OC(=O)CC(C)C)cnn(C)c1=O | 0 |
| CCc1cc(-c2ccc(Br)cc2)nn1-c1c(O)c(C)nn(C)c1=O | 0 |

# ---- query compound ----
Q) Need Plant response rating, Pigweed of `Cn1ncc(O)c(-n2nc(-c3ccc(Cl)cc3)cc2C2CC2)c1=O` , thanks.
A) 0

* * *

# Tested on: johnsongrass (Sorghum halepense)
# ASSAY: Test B pre-/postemergence plant response
# Type: in vivo
# MEASUREMENT_CONTEXT: Postemergence, 31 g ai/ha; scale 0 to 100, 0 no effect, 100 complete control
# Excerpt: […] Plant species in the flooded paddy test consisted of rice (Oryza sativa), umbrella sedge (Cyperus difformis), ducksalad (Heteranthera limosa) and barnyardgrass (Echinochloa crus-galli) grown to the 2-leaf stage for testing. […] Treated plants and controls were maintained in a greenhouse for 13 to 15 days, after which time all species were compared to controls and visually evaluated. […]
EXPERIMENTAL_ENDPOINT: Plant response rating, Johnsongrass
Respond with the number and no other words.

Example results:
| RECORD_SMILES | Plant response rating, Johnsongrass |
| --- | --- |
| Cc1cc(-c2ccc(Cl)cc2)nn1-c1c(OC(=O)c2ccccc2Cl)cnn(C)c1=O | 90 |
| CCc1cc(-c2ccc(C(F)(F)F)cc2)nn1-c1c(O)c(C)nn(C)c1=O | 98 |
| Cc1cc(-c2ccc(C(F)(F)F)c(F)c2)nn1-c1c(O)c(C(F)(F)F)nn(C)c1=O | 98 |
| Cc1cc(-c2ccc(Cl)cc2)nn1-c1c(OS(=O)(=O)c2ccccc2)cnn(C)c1=O | 95 |
| CCc1cc(-c2ccc(Cl)cc2)nn1-c1c(O)cnn(C)c1=O | 90 |

# ---- query compound ----
Q) Need Plant response rating, Johnsongrass of `Cc1cc(-c2ccc(Cl)cc2)nn1-c1c(OC(=O)c2cccc(Cl)c2)cnn(C)c1=O` , thanks.
A) 98

* * *

# Tested on: windgrass (Apera spica-venti)
# ASSAY: Test B postemergence plant response
# Format: in vivo
# MEASUREMENT_CONTEXT: Postemergence, 62 g ai/ha; scale 0 to 100, 0 no effect, 100 complete control
# reported Plant response rating, Windgrass; entries follow
Respond with the number and no other words.

Example results:
| RECORD_SMILES | Plant response rating, Windgrass |
| --- | --- |
| Cc1cc(-c2ccc(Cl)cc2)nn1-c1c(OC(=O)CC(C)C)cnn(C)c1=O | 85 |
| CCc1cc(-c2ccc(C(F)(F)F)cc2)nn1-c1c(O)c(OC)nn(C)c1=O | 100 |
| Cc1nn(C)c(=O)c(-c2nc(-c3ccc(Cl)cc3)sc2C)c1O | 70 |
| Cc1cc(-c2ccc(Cl)cc2)nn1-c1c(OS(=O)(=O)c2ccccc2)cnn(C)c1=O | 40 |
| Cn1ncc(O)c(-n2nc(-c3ccc(Cl)cc3)cc2C2CC2)c1=O | 65 |

# ---- query compound ----
Q) Need Plant response rating, Windgrass of `COc1nn(C)c(=O)c(-n2nc(-c3ccc(Br)cc3)cc2C)c1O` , thanks.
A) 100
